- Target desc: T1, mouse GFRAL expressed on cells (mouse, UniProt Q6SJE0 20-393)
- T1 sequence: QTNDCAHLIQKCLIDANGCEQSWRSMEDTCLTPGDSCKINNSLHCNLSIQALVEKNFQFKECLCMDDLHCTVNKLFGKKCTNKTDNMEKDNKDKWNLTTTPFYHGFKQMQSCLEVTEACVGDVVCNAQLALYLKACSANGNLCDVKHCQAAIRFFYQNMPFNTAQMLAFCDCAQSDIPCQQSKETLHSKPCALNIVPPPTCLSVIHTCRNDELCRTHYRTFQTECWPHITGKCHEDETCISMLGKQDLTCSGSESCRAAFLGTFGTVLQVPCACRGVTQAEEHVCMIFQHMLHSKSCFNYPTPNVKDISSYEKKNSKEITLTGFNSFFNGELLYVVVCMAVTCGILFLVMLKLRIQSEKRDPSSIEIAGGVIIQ
- Assay summary: cell-based or functional assay
Reported metric: IC50, ELK1-luciferase reporter (mGFRAL/mRET) (nM)
The figure you give is taken to be in nM; do not add the unit.

# Binder, Number
rows = [
    ("antibody designated 2B8 (antibody, V domains shown, mouse hybridoma monoclonal) VH: QIQLVQSGPELKKPGETVKISCKASGYTFTTYGMSWVKQAPGKIFKWMGWINTYSGVPTFVDDFRGRFAFSLETSASTAYLQIGNLKNEDTATYFCARRSSYYPYWYFDVWGTGTTVTVSS VL: DIQMTQSPASLSASVGETVTITCRPSENIYSYLTWFQQEQGKSPQLLVYNAQTLAEGVPSRFSGSGSGTHFSLKINSLQPEDFGTYYCQHYYGYPFTFGSGTKLEIK", 2.45),
    ("antibody designated 17J16 (antibody, V domains shown, mouse hybridoma monoclonal) VH: QVQLQQSGAELAKPGASVKMSCKTSGYTFTDYWIHWVKQRPGQGLEWIGYINPNSNYAEYNQKFKVKATLTADKSSSTAYLQLSRLTSEDSAVYYCARFDWNWYFHVWGAGSTVTVSS VL: DVALTQIPLTLSVTVGQPASISCKSSQSLSDSDGKTYLNWLLQKPGQSPKRLIYLVSRLGSGVPDRFTGSGSGADFTLKISRVEAEDLGVYYCWQGTHFPQTFGGGTKLEIK", 0.407),
    ("antibody designated 19K19 (antibody, V domains shown, mouse hybridoma monoclonal) VH: QVQLQQSGPDLVKPGASVKISCKASGYAFTSYWMNWVKQRPGKGLEWIGRIYPGDGDTNYNGKFKGKATLTADKSSSTAYMQLSSLTSEDSAVYFCARAYLLRLRRTGYYAMDYWGQGTSVTVSS VL: DVVLTQTPLSLPVNIGDQASISCKSTKSLLNSDEFTYLDWYLQKPGQSPQLLIYLVSNRFSGVPDRFSGSGSGTDFTLKISRVEAEDLGVYYCFQSNYLPYTFGGGTKLEIK", 0.895),
    ("antibody designated 2B3 (antibody, V domains shown) VH: EVKLVESGGGLVQPGGSLKLSCAASGFTFSDYFMFWVRQTPEKRLEWVAYISNDGDSTYYPDTVQGRFTISRDNAKNTLYLQMSRLRSEDTAMYYCTRQGAQATLDYWGQGTTLTVSS VL: QIVLTQSPAIMSASLGEEITLTCSASSSVFYMHWYQQKSGTSPKLLIYSTSNLASGIPSRFSGSGSGTFYSLTISSVEAEDAADYYCHQWSSTFGGGTKLEIK", 7.76),
    ("antibody designated 2A9 (antibody, V domains shown, mouse hybridoma monoclonal) VH: EVKLVESGGGLVKPGGSLKLSCAASGFTFSTYAMSWVRQTPEKRLEWVASITSGGTTYYTDSVKGRFTISRDNARNILYLQMSSLRSEDTAMYYCARDGNFYYYGMDYWGQGTSVTVSS VL: DIVMTQSQKFMSTSVGDRVSITCKASQNVGTAVAWYQQKPGQSPKILIYSASNRFTGVPDRFTGSGSGTDFTLTISNMQSEDLADYFCQQYSSYFTFGGGTKLELK", 7.87),
    ("antibody designated 25M22 (antibody, V domains shown, mouse hybridoma monoclonal) VH: QVQLQQSGPDLVKPGASVKISCKASGYTFTSYWVNWMKQRPGKGLEWIGRIYPGDGDTNYNGKFKGKATLTADKSSSTAYMQLSSLTSEDSAVYFCARAYLLRLRRTGYYAMDYWGQGTSVTVSS VL: DVVLTQTPLSLPVNIGDQASISCKSTKSLLNSDEFTYLDWYLQKPGQSPQLLIFLVSNRFSGVPDRFSGSGSGTDFTLKISRVEAEDLGVYYCFQSNYLPYTFGGGTKLEIK", 1.11),
]

Consider the additional binder presented here.
Requested field: IC50, ELK1-luciferase reporter (mGFRAL/mRET). Item: antibody designated 8D8 (antibody, V domains shown, mouse hybridoma monoclonal) VH: QVQLKESGPGLVAPSQSLSITCTVSGFSLSRYSVHWVRQPPGKGLEWLGMIWGFGSTDYNSALKSRLSITKDNSKSQFFLKMNSLQTDDTAMYYCARIHTTAGSYWGQGTLVTVSA VL: DIVMTQSQKFMSTSIGDRVSVTCKASQNVGTNVAWYQQKPGQSPKALVYSTSYRYSGVPDRFTGSGSGTDFTLTISNVQSEDLAEYFCHQYNSYPLTFGAGTKLELK
1.42
